# assayExplanation: Pharmacokinetics of methotrexate after intravenous administration with and without febuxostat in rats
# Format: in vivo, rat
# conditionDetails: male, Wistar, rat, plasma, iv, 2 mg/kg, methotrexate 2 mg/kg i.v., febuxostat (−), mean ± S.D., n = 4
parameter: k el (s⁻¹)

{"compound": "CN(Cc1cnc2nc(N)nc(N)c2n1)c1ccc(C(=O)N[C@@H](CCC(=O)O)C(=O)O)cc1 [methotrexate]", "parameter": "k el", "u": "s⁻¹", "reading": 0.00183}

----------
# assayExplanation: Pharmacokinetics of methotrexate after intravenous administration with and without febuxostat in rats
# Type: in vivo, rat
# conditionDetails: male, Wistar, rat, plasma, iv, 2 mg/kg, methotrexate 2 mg/kg i.v., febuxostat (+) 1 mg/kg i.v., mean ± S.D., n = 4, read-out: AUC0–90 min (converted)
parameter: AUC(0-t)

{"compound": "CN(Cc1cnc2nc(N)nc(N)c2n1)c1ccc(C(=O)N[C@@H](CCC(=O)O)C(=O)O)cc1 [methotrexate]", "parameter": "AUC(0-t)", "reading": "4350 ng·h/mL"}

----------
# assayExplanation: Pharmacokinetics of methotrexate after intravenous administration with and without febuxostat in rats
# Assay type: in vivo, rat
# conditionDetails: male, Wistar, rat, plasma, iv, 2 mg/kg, methotrexate 2 mg/kg i.v., febuxostat (−), mean ± S.D., n = 4, read-out: CLtot

{"compound": "CN(Cc1cnc2nc(N)nc(N)c2n1)c1ccc(C(=O)N[C@@H](CCC(=O)O)C(=O)O)cc1 [methotrexate]", "clearance": "15.9 mL/min/kg"}

----------
# assayExplanation: Pharmacokinetics of methotrexate after intravenous administration with and without febuxostat in rats
# Type: in vivo, rat
# conditionDetails: male, Wistar, rat, plasma, iv, 2 mg/kg, methotrexate 2 mg/kg i.v., febuxostat (+) 1 mg/kg i.v., mean ± S.D., n = 4
parameter: k el (s⁻¹)

{"compound": "CN(Cc1cnc2nc(N)nc(N)c2n1)c1ccc(C(=O)N[C@@H](CCC(=O)O)C(=O)O)cc1 [methotrexate]", "parameter": "k el", "u": "s⁻¹", "reading": 0.000833}
